System: T-47D
Assay: Caspase cascade activation assay (N-(Ac-DEVD)-N'-ethoxycarbonyl-R110 fluorogenic substrate) in T-47D cells
Assay type: cell-based, Human
Conditions: T-47D; ratio of net RFU of compound to control; 24 h incubation, 0.16 to 10 μM final
Label rule met when Caspase activity (Ratio) is at or above 10; otherwise label rule not met.

Request: Given N#Cc1cc(C(=O)c2ccc(Cl)cc2)n2c1ccc1ccccc12 , state whether its Caspase activity (Ratio) is at least 10.
Response: rule met

Request: Given Cc1cc2c(C#N)cc(C(=O)c3ccccc3)n2c2ccccc12 , state whether its Caspase activity (Ratio) is at least 10.
Response: rule met

Request: Given COc1cccc(C(=O)c2cc(C#N)c3ccc4ccccc4n23)c1 , state whether its Caspase activity (Ratio) is at least 10.
Response: rule met

Request: Given N#Cc1cc(C(=O)c2ccc([N+](=O)[O-])cc2)n2c1ccc1ccccc12 , state whether its Caspase activity (Ratio) is at least 10.
Response: rule not met

Request: Given N#Cc1cc(C(=O)c2ccc(N)cc2)n2c1ccc1ccccc12 , state whether its Caspase activity (Ratio) is at least 10.
Response: rule met

Request: Given N#Cc1cc(C(=O)c2ccccc2)n2ccccc12 , state whether its Caspase activity (Ratio) is at least 10.
Response: rule not met

Request: Given N#Cc1cc(C(=O)c2ccc(F)cc2)n2c1ccc1ccccc12 , state whether its Caspase activity (Ratio) is at least 10.
Response: rule met

Request: Given N#Cc1cc(C(=O)c2ccccc2)n2c3c(ccc12)CCCC3 , state whether its Caspase activity (Ratio) is at least 10.
Response: rule not met

Request: Given Cc1ccc2c(ccc3c(C#N)cc(C(=O)c4ccccc4)n32)c1 , state whether its Caspase activity (Ratio) is at least 10.
Response: rule not met

Request: Given N#Cc1cc(C(=O)c2ccccc2)n2c1ccc1ccccc12 , state whether its Caspase activity (Ratio) is at least 10.
Response: rule not met

Request: Given COc1ccc(C(=O)c2cc(C#N)c3ccc4ccccc4n23)cc1 , state whether its Caspase activity (Ratio) is at least 10.
Response: rule met

Request: Given Cc1ccc(C(=O)c2cc(C#N)c3ccc4ccccc4n23)cc1 , state whether its Caspase activity (Ratio) is at least 10.
Response: rule met

###

Test system: ZR-75-1
Experiment: Caspase cascade activation assay (N-(Ac-DEVD)-N'-ethoxycarbonyl-R110 fluorogenic substrate) in ZR-75-1 cells
Type: cell-based, Human
Details: Homo sapiens; ZR-75-1; 24 h incubation; sigmoidal dose-response; read-out: Caspase potency EC50
Please provide measured pEC50 for the entries that follow.
Give only the number. pEC50 is defined as minus log10 of concentration in molar units.

Request: Request - read-out pEC50 | tested on ZR-75-1 | compound Cc1ccc(C(=O)c2cc(C#N)c3ccc4ccccc4n23)cc1
Response: 5.86

Request: Request - read-out pEC50 | tested on ZR-75-1 | compound COc1ccc(C(=O)c2cc(C#N)c3ccc4ccccc4n23)cc1
Response: 6.73

Request: Request - read-out pEC50 | tested on ZR-75-1 | compound Cc1ccc2c(ccc3c(C#N)cc(C(=O)c4ccccc4)n32)c1
Response: 5.25

Request: Request - read-out pEC50 | tested on ZR-75-1 | compound N#Cc1cc(C(=O)c2ccc([N+](=O)[O-])cc2)n2c1ccc1ccccc12
Response: 5.90

Request: Request - read-out pEC50 | tested on ZR-75-1 | compound N#Cc1cc(C(=O)c2ccc(Cl)cc2)n2c1ccc1ccccc12
Response: 5.59

###

System: ZR-75-1
Assay: Caspase cascade activation assay (N-(Ac-DEVD)-N'-ethoxycarbonyl-R110 fluorogenic substrate) in ZR-75-1 cells
Format: cell-based, Human
Conditions: Homo sapiens; ZR-75-1; 24 h incubation; sigmoidal dose-response; read-out: Caspase potency EC50
Please provide measured pEC50 for the entries that follow.
Give only the number. pEC50 is defined as minus log10 of concentration in molar units.

Request: GET /values?readout=pEC50&item= Cc1cc2c(C#N)cc(C(=O)c3ccccc3)n2c2ccccc12
Response: 6.31

Request: GET /values?readout=pEC50&item= N#Cc1cc(C(=O)c2cccc(Br)c2)n2c1ccc1ccccc12
Response: 6.80

Request: GET /values?readout=pEC50&item= N#Cc1cc(C(=O)c2ccccc2)n2c3c(ccc12)CCCC3
Response: 5.28

Request: GET /values?readout=pEC50&item= N#Cc1cc(C(=O)c2ccc(F)cc2)n2c1ccc1ccccc12
Response: 6.82

Request: GET /values?readout=pEC50&item= N#Cc1cc(C(=O)c2ccc(N3CCCC3)cc2)n2c1ccc1ccccc12
Response: 6.88

Request: GET /values?readout=pEC50&item= N#Cc1cc(C(=O)c2ccc(N)cc2)n2c1ccc1ccccc12
Response: 6.83
